UI: recorded values
# Tested on: Rattus norvegicus
# protocol_summary: Ulcerogenic activity in po dosed formalin-induced rat foot paw edema model assessed as ulcer index at antiinflammatory ED50
# Type: toxicity, organism-based
# recorded_conditions: in vivo
Kindly provide the number alone.

UI for Cc1ccc(-c2cc(C(F)(F)F)nn2-c2ccc(S(N)(=O)=O)cc2)cc1 is 2.9

UI for NS(=O)(=O)c1ccc(N2N=C(c3cccs3)CC2c2ccc(Cl)cc2)cc1 (stereo not drawn) is 2.82

UI for NS(=O)(=O)c1ccc(N2N=C(c3ccco3)CC2c2ccc(Cl)cc2)cc1 (stereo not drawn) is 4.12

---

# System: Rattus norvegicus
# protocol_summary: Antiinflammatory activity in po dosed formalin-induced rat foot paw edema model assessed as paw thickness after 3 hrs
# Assay type: functional
ED50: recorded values

Example entries begin here.
>  <compound>
NS(=O)(=O)c1ccc(N2N=C(c3ccco3)CC2c2ccco2)cc1 (stereo not given)

>  <ED50>
383 µmol/kg

$$$$
>  <compound>
CC(C)Cc1ccc(C(C)C(=O)O)cc1 (stereo not given)

>  <ED50>
499 µmol/kg

$$$$
>  <compound>
NS(=O)(=O)c1ccc(N2N=C(c3ccco3)CC2c2cccs2)cc1 (stereo not given)

>  <ED50>
469 µmol/kg

$$$$
>  <compound>
NS(=O)(=O)c1ccc(N2N=C(c3cccs3)CC2c2ccc(C(F)(F)F)cc2)cc1 (stereo not given)

>  <ED50>
99 µmol/kg

$$$$
>  <compound>
Cc1ccc(-c2cc(C(F)(F)F)nn2-c2ccc(S(N)(=O)=O)cc2)cc1

>  <ED50>
47 µmol/kg

$$$$
>  <compound>
COc1cc(C2CC(c3ccco3)=NN2c2ccc(S(N)(=O)=O)cc2)cc(OC)c1OC (stereo not given)

>  <ED50>
179 µmol/kg

$$$$
>  <compound>
NS(=O)(=O)c1ccc(N2N=C(c3cccs3)CC2c2cccs2)cc1 (stereo not given)

>  <ED50>
144 µmol/kg

$$$$
>  <compound>
COc1ccc(C2CC(c3ccco3)=NN2c2ccc(S(N)(=O)=O)cc2)cc1 (stereo not given)

>  <ED50>
232 µmol/kg

$$$$

# context switch: different compound, same ED50
Observed ED50 on Rattus norvegicus, entry NS(=O)(=O)c1ccc(N2N=C(c3ccco3)CC2c2ccccc2)cc1 (stereo not given) , equals 238 µmol/kg

---

ED50: recorded values
# Test system: Rattus norvegicus
# protocol_summary: Antiinflammatory activity in po dosed formalin-induced rat foot paw edema model assessed as paw thickness after 3 hrs
# Assay type: functional
Entry rule: numbers only, all in µmol/kg.

Example entries begin here.
>  <compound>
NS(=O)(=O)c1ccc(N2N=C(c3cccs3)CC2c2ccco2)cc1 (stereo not given)

>  <ED50 [µmol/kg]>
209

$$$$
>  <compound>
NS(=O)(=O)c1ccc(N2N=C(c3cccs3)CC2c2ccc(Cl)cc2)cc1 (stereo not given)

>  <ED50 [µmol/kg]>
197

$$$$
>  <compound>
NS(=O)(=O)c1ccc(N2N=C(c3ccco3)CC2c2ccc(Cl)cc2)cc1 (stereo not given)

>  <ED50 [µmol/kg]>
404

$$$$
>  <compound>
COc1cc(C2CC(c3cccs3)=NN2c2ccc(S(N)(=O)=O)cc2)cc(OC)c1OC (stereo not given)

>  <ED50 [µmol/kg]>
382

$$$$

# context switch: different compound, same ED50
ED50 for COc1ccc(C2CC(c3cccs3)=NN2c2ccc(S(N)(=O)=O)cc2)cc1 (stereo not given) is 204

FYI, the data here is from ChEMBL document CHEMBL3745634.
